Values were extracted from PubChem BioAssay (NCI).

Tested on: NCI-H522 lung
assay-text: NCI tumour cell line growth inhibition, 48 h
Where a SMILES comes first, the peptide text is derived from it. The star is where a group is joined. Boc = CC(C)(C)OC(=O)*; OBn = c1ccc(CO*)cc1
metric: TGI

Example entries and their recorded answers appear below.
COc1cc(S(=O)(=O)Nc2ccc(-c3csc(/N=C\C=C\c4ccccc4)n3)cc2)ccc1Cl | > 100 µM
N#CC1C(=O)NC2=C(CCOc3c2ccc2ccccc32)C1c1ccc(F)cc1 (configuration not stated) | > 100 µM
CCCCCCCCCCCCCCC[C@@H](O)C[N+](C)(C)CCO | 4.35 µM
O=C(NCCCCCCNC(=O)NC1OCC(O)C(O)C1O)NC1OCC(O)C(O)C1O (configuration not stated) | > 100 µM
CCOC(=O)c1nc2cc(C(F)(F)F)ccc2nc1Oc1ccc(C(=O)OC)cc1 | > 100 µM
O=C(Oc1ccc(OC(Oc2ccccc2)c2ccccc2)cc1)c1ccccc1 (configuration not stated) | > 100 µM
COc1cccc(N2C(=O)[C@H]3[C@H]4CC(C(C)(C)C)CC[C@H]4c4c([nH]c5ccccc45)[C@H]3C2=O)c1 (some centres not stated) | 45.7 µM
COC(=O)C(C(=O)C(=O)Nc1ccc([N+](=O)[O-])cc1)c1nc2cc(C)c(C)cc2[nH]c1=O (configuration not stated) | > 100 µM

Suppose we examine the compound CC(C)C(NC(=O)CNC(=O)C1CCCN1C(=O)C(NC(=O)OC(C)(C)C)C(C)C)C(=O)NCC(=O)OCc1ccccc1 (configuration not stated) (Boc-VPGVG-OBn; configuration not given here) ; what TGI value has been reported?
> 100 µM

Suppose we examine the compound COc1ccc(C(=O)C(CC2C(=O)CC(C)(C)C(C(=O)C(=O)Nc3c(C)cccc3C)C2=O)c2ccc(OC)cc2)cc1 (configuration not stated) ; what TGI value has been reported?
> 100 µM

Suppose we examine the compound O=C1C2C3CCC(C2C(=O)N1CO)C1C2C(=O)N(CO)C(=O)C2C31 (configuration not stated) ; what TGI value has been reported?
> 100 µM

Suppose we examine the compound N#C/C(=C\c1ccc([N+](=O)[O-])s1)c1nc2cc(Br)ccc2s1 ; what TGI value has been reported?
0.539 µM
